# Species on record: Rattus norvegicus
pKd: −log10 of the molar value.
Catalogue of pKd values

{"givenSmiles": "COc1ccccc1N1CCN(CCN(C(=O)c2ccc(I)cc2)c2ccccn2)CC1", "pKd": 9.52}
{"givenSmiles": "COc1ccccc1N1CCN(CCN(C(=O)c2ccc(F)cc2)c2ccccn2)CC1", "pKd": 9.52}

Origin of measurements: ChEMBL document CHEMBL1127311
